Test: inhibitors of E-selectin induction by TNFa, primary screen, imaging, HUVEC, immunofluorescence, MLSMR starter and 10KST1 sets (AID 487);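 note: signal is fraction of cell area covered by stained E-selectin grains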
Settings: HUVEC TNFalpha-induced E-selectin immunofluorescence imaging, at 2 µM; stronger effect = higher value

| COMPOUND | UNIT_SPEC | inhibition |
| --- | --- | --- |
| CC(C(=O)N1CCCCC1)N1C(=O)c2ccccc2C1=O (stereo unspecified) | % | -54 |
| CN(C)c1nc2n(c(=O)n1)C(C#N)CS2 (stereo unspecified) | % | -192 |
| COC(=O)CSc1ncnc2c1sc1nc(-c3ccco3)c3c(c12)CC(C)(C)OC3 | % | -71.6 |
| COc1cc(NS(=O)(=O)c2ccc(N)cc2)nc(OC)n1 | % | -59.5 |
| CNC(=O)Nc1cccc(NC(=O)NC)n1 | % | -90.3 |
| CCOC(=O)c1sc2c(c1C)c(=O)c(C(=O)OCC)cn2CC | % | -79 |

---

Test: DUSP6 inhibitors restoring Erk phosphorylation by chemical complementation, primary imaging in DUSP6-transfected HeLa (AID 609)
Conditions: HeLa MKP-3 transfected, phospho-Erk imaging KS statistic; measured here: nuclear c-Myc green intensity z-score; at 10 µM; cells stimulated with TPA for 15 min
METRIC: z-score

| MOLECULE | METRIC | RECORDED_NUMBER |
| --- | --- | --- |
| COCCNC(=O)c1c(N)n(CCC2=CCCCC2)c2nc3ccccc3nc12 | z-score | -1.83 |
| CCN(CC)c1ccc2cc(C(=O)Nc3ccccn3)c(=O)oc2c1 | z-score | 0.482 |
| O=C(NC1(C(F)(F)F)C(=O)Nc2c1c(=O)[nH]c(=O)n2-c1ccccc1)c1cccnc1 (stereo not given) | z-score | -1.59 |
| Clc1ccc(-c2nnc3sc(Cc4cccs4)nn23)cc1 | z-score | -1.12 |
| O=C(NC1CCS(=O)(=O)C1)c1c(NC(=O)C2COc3ccccc3O2)sc2c1CCCC2 (stereo not given) | z-score | -1.93 |
| COCCOC(=O)C1=C(C)OC(N)=C(C#N)C1c1ccco1 (stereo not given) | z-score | -0.763 |
| CCC(C)Nc1nc(-c2cccc(OC)c2O)nc2ccccc12 (stereo not given) | z-score | -0.242 |
| C[C@@H]1C[C@H]2[C@@H]3CCC4=CC(=O)C=C[C@]4(C)[C@@]3(F)[C@@H](O)C[C@]2(C)[C@@]1(O)C(=O)COP(=O)(O)O | z-score | 0.378 |
| c1cncc(-c2nnc3sc(-c4ccco4)nn23)c1 | z-score | -1.33 |
| CCCCNC(=O)c1cc2n(n1)C(C(F)(F)F)CC(c1ccccc1)N2 (stereo not given) | z-score | -0.242 |

---

Experiment: inhibitors of E-selectin induction by TNFa, primary screen, imaging, HUVEC, immunofluorescence, MLSMR starter and 10KST1 sets (AID 487);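 note: signal is fraction of cell area covered by stained E-selectin grains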
Details: HUVEC TNFalpha-induced E-selectin immunofluorescence imaging, at 2 µM; stronger effect = higher value
The source made the active and inactive calls.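 How the source made its calls: active means visually confirmed hit in the image check and inhibition above 20%; inconclusive means visually confirmed hit but inhibition not above 20%; inactive means no visual hit in the image check.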
# inhibition values compiled below
METRIC: inhibition

| COMPOUND | METRIC | RESULT |
| --- | --- | --- |
| COCCOC(=O)c1c(C)nc(SCC(=O)Nc2ccc(C)cc2)c(C#N)c1-c1ccco1 | inhibition | -123% (inactive) |
| Cn1nnc2c(sc3nc(N4CCOCC4)c4c(c32)CCCC4)c1=O | inhibition | -120% (inactive) |
| O=C(CCN1CCCCC1)Nc1cccc(Cl)c1 | inhibition | -49.9% (inactive) |
| CCOC(=O)c1c(C(C#N)C#N)cc(C)nc1C | inhibition | -83.6% (inactive) |
| Cc1nnc2c(NC(C)C)nc3ccccc3n12 | inhibition | -63% (inactive) |
| Oc1ccccc1-c1nc(NCCN2CCOCC2)c2ccccc2n1 | inhibition | 14.7% (inactive) |
| Cc1c(C2Nc3ccccc3NC3=C2C(=O)CC(C)(C)C3)cnn1C (centres undefined) | inhibition | -16.2% (inactive) |
| CCOc1ccc(CSC(CC(=O)O)C(=O)O)cc1 (centres undefined) | inhibition | -17.6% (inactive) |
| O=C1C2CC=C(Cl)CC2C(=O)N1CNc1ccccn1 (centres undefined) | inhibition | -24.7% (inactive) |
| N#CC1=C2SCC(O)(c3ccccc3)N2C(=O)CC1c1ccccc1 (centres undefined) | inhibition | -39.3% (inactive) |
| Cn1c(=O)n(Cc2ccccc2)c(=O)c2c1nc(NCC1CCCO1)n2Cc1ccccc1 (centres undefined) | inhibition | -41.8% (inactive) |
| CCOC(=O)C1(C(=O)OCC)C(c2ccccc2)CC(O)N1C(C)=O (centres undefined) | inhibition | -65.8% (inactive) |
| O=C1C(=O)N(CCN2CCOCC2)C(c2ccccn2)/C1=C(/O)c1ccccc1 (centres undefined) | inhibition | -87.4% (inactive) |
| O=C(N(c1ccccc1)c1ccccc1)n1ccnc1 | inhibition | -71.5% (inactive) |
| CC(C)OC(=O)CC1=NC(=O)CS1 | inhibition | -27.6% (inactive) |
| N#CCCn1cnc2c(=S)nc[nH]c21 | inhibition | -142% (inactive) |
| CCN(CC)CCCN1C(=O)C(O)=C(C(=O)c2ccc(C)o2)C1c1ccc(C)o1 (centres undefined) | inhibition | -104% (inactive) |
| CC1=C(c2ccc(Cl)cc2)[N+](=O)C(C)(C)N1[O-] | inhibition | -69.5% (inactive) |
| Cn1c(Cl)cnc1C1CC(=O)c2cc(Cl)ccc2O1 (centres undefined) | inhibition | -161% (inactive) |
| COc1cccc(/C(O)=C2/C(=O)C(=O)N(CCN(C)C)C2c2ccc(Br)cc2)c1 (centres undefined) | inhibition | 14.2% (inactive) |
| CCn1cc(C(=O)O)c(=O)c2cc(F)c(N3CCNCC3)cc21 | inhibition | -31% (inactive) |
| CC(=O)Oc1ccccc1C1OCCN1C(C)=O (centres undefined) | inhibition | -38.8% (inactive) |
| Cc1cc(-c2ccccc2)nnc1NCCN1CCOCC1 | inhibition | -64.4% (inactive) |
| COc1ccc(/C=C/C(=O)Nc2ccccc2C(=O)O)cc1OC | inhibition | -112% (inactive) |
